From: patent US7884120B2

As an illustration, consider measured MIC for compounds on Candida albicans (ATCC 24433).
Give bare numbers, in µg/mL.

Example results:
compound	MIC (µg/mL)
Brc1ccc(-c2[nH]c(-c3c[nH]c4ccc(Br)cc34)nc2-c2ccccc2)cc1 [Compound 43]	8
Fc1ccc(-c2nc(-c3c[nH]c4ccc(Br)cc34)[nH]c2-c2ccc(F)cc2)cc1 [Compound 8]	8
Clc1ccc(-c2[nH]c(-c3c[nH]c4ccc(Br)cc34)nc2-c2ccccc2)cc1 [Compound 32]	8

Here is another compound to look at.
Prompt: Please report the recorded MIC for Fc1ccc(-c2[nH]c(-c3c[nH]c4ccc(Br)cc34)nc2-c2ccccc2)cc1 [Compound 36] .
Response: 16

----------
- System: Enterococcus faecium (ATCC-51559)
- method.description: MIC by microdilution against Enterococcus faecium
- Assay type: cell-based
- measurement.conditions: unit not given in Table 4 (Table 3, same method: μg/ml)
reported.metric: MIC
One number for each entry.

Sample answers from the record:
compound	reported.value
Cc1[nH]c2ccccc2c1-c1nc(-c2ccccc2)c(-c2ccccc2)[nH]1 [Compound 2]	16
Cc1[nH]c2ccccc2c1-c1nc(-c2ccc(Cl)cc2)c(-c2ccc(Cl)cc2)[nH]1 [Compound 19]	8

Prompt: I would be grateful if you could share the reported MIC for Cc1[nH]c2ccccc2c1-c1nc(-c2ccc(Br)cc2)c(-c2ccc(Br)cc2)[nH]1 [Compound 13] .
Response: 32

----------
- Test system: Candida albicans (ATCC 24433)
- method.description: In vitro anti-fungal activity, microdilution against Candida albicans
- Type: cell-based
- measurement.conditions: ATCC24433, C. albicans ATCC 24433, compound 25 μg/ml, 24 h, read-out: Inhibition (%) after 24 h
Would you kindly list inhibition at 25 µg/mL for each of these molecules?
Numbers only, in %.

smiles.string	target.or.test.system	inhibition at 25 µg/mL [%]
Cc1[nH]c2ccccc2c1-c1nc(-c2ccccc2)c(-c2ccc(Br)cc2)[nH]1	Candida albicans (ATCC 24433)	77

For each of the items listed, what is its inhibition at 25 µg/mL?
1. Brc1ccc(-c2[nH]c(-c3c[nH]c4ccc(Br)cc34)nc2-c2ccccc2)cc1
2. Cc1[nH]c2ccccc2c1-c1nc(-c2ccccc2)c(-c2ccc(F)cc2)[nH]1
3. Cc1[nH]c2ccccc2c1-c1nc(-c2ccc(Br)cc2)c(-c2ccc(Br)cc2)[nH]1
4. Cc1[nH]c2ccccc2c1-c1nc(-c2ccccc2)c(-c2ccc([N+](=O)[O-])cc2)[nH]1
5. O=[N+]([O-])c1ccc(-c2[nH]c(-c3c[nH]c4ccc(Br)cc34)nc2-c2ccccc2)cc1
6. Fc1ccc(-c2nc(-c3c[nH]c4ccc(Br)cc34)[nH]c2-c2ccc(F)cc2)cc1
7. COC(=O)c1ccc2c(-c3nc(-c4ccccc4)c(-c4ccccc4)[nH]3)c[nH]c2c1

Response:
87
100
0
0
0
100
0
